src = patent US20210380703A1

- assay target: T1, human ACVR2A (human, UniProt P27037 20-135, limits assumed); note: test concentration or dose not given here
- T1 construct: also called activin receptor, type II A
- T1 sequence (P27037 20-135 limits assumed): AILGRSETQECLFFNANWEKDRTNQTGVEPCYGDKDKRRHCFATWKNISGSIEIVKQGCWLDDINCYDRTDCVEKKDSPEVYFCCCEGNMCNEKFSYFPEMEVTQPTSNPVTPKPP
- assay text: ELISA
# maps each entry to its optical density

INSERT INTO assay_data (binder, recorded_endpoint, recorded_measurement) VALUES
  ('374_F03 (antibody, V domains shown, Group I) VH: EVQLLESGGGLVQPGGSLRLSCAASGFTFSSYGMNWVRQAPGKGLEWVASINYNGGYTSYADSVKGRFTISRDNSKNTLYLQMNSLRAEDTAVYYCARAANWHDTHLDYWGQGTLVTVSS VL: DIQMTQSPSSLSASVGDRVTITCRASQSIISYVNWYQQKPGKAPKLVIYAATSRASGVPSRFSGSGSGTDFTLTISSLQPEDFATYYCQQSYDTPLTFGGGTKVEIK', 'optical density', '3.53 OD');

Sure, the documented optical density for 371_H02 (antibody, V domains shown, Group I) VH: EVQLLESGGGLVQPGGSLRLSCAASGFTFDDYSMNWVRQAPGKGLEWVSGINYNGGYKSYADSVKGRFTISRDNSKNTLYLQMNSLRAEDTAVYYCARAANWHDTHLDYWGQGTLVTVSS VL: DIQMTQSPSSLSASVGDRVTITCRASQSIISYLNWYQQKPGKAPKLVIYAATSLASGVPSRFSGSGSGTDFTLTISSLQPEDFATYYCQQSYENPLTFGGGTKVEIK is 1.88 OD

Form field optical density, entry 365_C06 (antibody, V domains shown, Group I) VH: EVQLLESGGGLVQPGGSLRLSCAASGFTFSDYGMHWVRQAPGKGLEWVSGINYNGGYTSYADSVKGRFTISRDNSKNTLYLQMNSLRAEDTAVYYCARAANWHDTALDYWGQGTLVTVSS VL: DIQMTQSPSSLSASVGDRVTITCRASQSISTYVNWYQQKPGKAPKLLIYAVTSLASGVPSRFSGSGSGTDFTLTISSLQPEDFATYYCQQSYDNPLTFGGGTKVEIK : 1.78 OD
